Measured values drawn from patent US9650375B2 for this set.

- experimental_system: recombinant human AMPK complex 7 (containing α2β1γ1) (Homo sapiens, UniProt P54646+Q9Y478)
- Construct: made in house; host or cells: Spodoptera frugiperda Sf21 cells (baculovirus, triple infection)
- Sequence (P54646 whole entry): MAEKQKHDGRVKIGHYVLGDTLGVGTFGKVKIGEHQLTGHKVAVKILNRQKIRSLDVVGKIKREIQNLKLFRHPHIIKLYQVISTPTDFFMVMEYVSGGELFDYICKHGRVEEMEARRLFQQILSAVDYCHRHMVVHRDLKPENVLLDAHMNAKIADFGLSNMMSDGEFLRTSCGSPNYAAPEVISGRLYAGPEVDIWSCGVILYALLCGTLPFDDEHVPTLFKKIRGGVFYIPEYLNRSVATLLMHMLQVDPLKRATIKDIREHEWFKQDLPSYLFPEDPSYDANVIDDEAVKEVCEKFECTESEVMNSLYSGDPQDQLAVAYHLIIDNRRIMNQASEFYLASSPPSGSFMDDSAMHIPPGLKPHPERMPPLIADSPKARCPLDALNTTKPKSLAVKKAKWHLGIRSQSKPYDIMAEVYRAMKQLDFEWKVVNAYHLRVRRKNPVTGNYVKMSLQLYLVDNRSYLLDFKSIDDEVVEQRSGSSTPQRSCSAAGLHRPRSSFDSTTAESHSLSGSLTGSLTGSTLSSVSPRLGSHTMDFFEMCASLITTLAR
- Sequence (Q9Y478 whole entry): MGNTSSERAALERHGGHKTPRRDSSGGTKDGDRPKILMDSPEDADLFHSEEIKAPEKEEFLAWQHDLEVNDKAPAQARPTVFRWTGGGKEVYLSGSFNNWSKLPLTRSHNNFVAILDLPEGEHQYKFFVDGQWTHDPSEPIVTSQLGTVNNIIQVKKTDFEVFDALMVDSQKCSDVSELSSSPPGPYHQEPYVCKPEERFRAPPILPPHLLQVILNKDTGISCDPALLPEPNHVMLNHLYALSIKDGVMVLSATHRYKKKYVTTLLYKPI
- Sequence (P54619 whole entry partner): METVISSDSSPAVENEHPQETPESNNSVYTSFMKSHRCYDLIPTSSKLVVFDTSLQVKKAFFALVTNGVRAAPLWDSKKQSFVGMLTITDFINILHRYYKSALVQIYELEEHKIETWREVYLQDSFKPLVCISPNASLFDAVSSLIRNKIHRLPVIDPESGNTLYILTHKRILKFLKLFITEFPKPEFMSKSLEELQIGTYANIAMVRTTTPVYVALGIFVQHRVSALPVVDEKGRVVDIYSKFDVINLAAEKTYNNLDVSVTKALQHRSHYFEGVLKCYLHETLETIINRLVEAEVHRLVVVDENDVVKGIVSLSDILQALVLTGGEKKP
- assay_summary: In vitro AMPK activation assay (AMPKSAMSF), AMPK complex 7
- Format: biochemical
- experimental_parameters: human AMPK complex 7; inflection point reflecting 50% of the maximum activation
- Method: AMPKSAMSF (In Vitro AMPK Activation Assay) The recombinant human AMPK complex 1 (containing α1β1γ1) and complex 7 (containing α2β1γ1) were obtained from baculovirus expression system. […] The in vitro AMPK activation assay is performed in a volume of 30 μl in a 384-well plate. […] Phosphorylated 5-FAM SAMS product is assessed using a Caliper EZ Reader LabChip microfluidics reader. […] The 10-point titration data were expressed as % maximum AMP activation. […]
This listing pairs molecules with measured log10 EC50.
observed_property: log10 EC50 (log10 of the value in nM)

{"record_smiles": "Cc1ccc(Oc2cc3nc(-c4ccc(-c5ccccc5)cc4)c(F)cc3[nH]2)cc1C(=O)O", "endpoint_result": 0.78}
{"record_smiles": "OC[C@H]1OC[C@@H](Oc2cc3nc(-c4ccc(C5(CO)CC5)cc4)c(Cl)cc3[nH]2)[C@@H]1O", "endpoint_result": 1.18}
{"record_smiles": "O[C@@H]1CO[C@H]2[C@@H]1OC[C@H]2Oc1cc2nc(-c3ccc(-c4ccccc4)cc3)c(Cl)cc2[nH]1", "endpoint_result": 0.70}
{"record_smiles": "O=S1(=O)CCN(c2ccc(-c3nc4cc(O[C@@H]5CO[C@H]6[C@@H]5OC[C@H]6O)[nH]c4cc3Cl)cc2)CC1", "endpoint_result": 0.90}
{"record_smiles": "Cc1c(O[C@@H]2CC[C@H]3[C@@H]2OC[C@H]3O)[nH]c2cc(Cl)c(-c3ccc(-c4ccccc4)cc3)nc12", "endpoint_result": 1.75}
{"record_smiles": "OC[C@H]1OC[C@H](Oc2cc3nc(-c4ccc(C5(CO)CC5)cc4)c(Cl)cc3[nH]2)C[C@@H]1O", "endpoint_result": 0.60}
{"record_smiles": "OC[C@H]1OC[C@@H](Oc2cc3nc(-c4ccc(-c5ccccc5)cc4)c(Cl)cc3[nH]2)[C@@H]1O", "endpoint_result": 1.08}
{"record_smiles": "OC[C@H]1OC[C@H](Oc2cc3nc(-c4ccc(-c5ccccc5)cc4)c(Cl)cc3[nH]2)C[C@@H]1O", "endpoint_result": 1.85}

----------
- experimental_system: recombinant human AMPK complex 1 (containing α1β1γ1) (Homo sapiens, UniProt Q13131+Q9Y478)
- Sequence (Q13131 whole entry): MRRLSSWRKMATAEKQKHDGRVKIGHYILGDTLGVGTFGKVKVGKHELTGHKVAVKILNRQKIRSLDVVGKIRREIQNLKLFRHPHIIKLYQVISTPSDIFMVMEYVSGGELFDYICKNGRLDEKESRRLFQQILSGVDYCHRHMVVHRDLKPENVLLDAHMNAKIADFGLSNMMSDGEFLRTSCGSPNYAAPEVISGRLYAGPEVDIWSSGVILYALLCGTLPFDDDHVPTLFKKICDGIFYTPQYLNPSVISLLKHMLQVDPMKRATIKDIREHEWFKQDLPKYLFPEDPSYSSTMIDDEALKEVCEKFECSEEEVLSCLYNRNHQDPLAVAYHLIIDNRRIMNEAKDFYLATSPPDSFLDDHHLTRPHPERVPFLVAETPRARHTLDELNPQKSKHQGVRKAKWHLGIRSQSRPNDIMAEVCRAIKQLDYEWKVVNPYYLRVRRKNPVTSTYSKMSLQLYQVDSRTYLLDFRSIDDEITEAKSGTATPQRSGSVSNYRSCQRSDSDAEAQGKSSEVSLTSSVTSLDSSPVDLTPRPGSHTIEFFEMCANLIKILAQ
- Sequence (Q9Y478 whole entry): as the sequence (Q9Y478 whole entry) above
- Sequence (P54619 whole entry partner): as the sequence (P54619 whole entry partner) above
- assay_summary: In vitro AMPK activation assay (AMPKSAMSF), AMPK complex 1
- experimental_parameters: human AMPK complex 1; inflection point reflecting 50% of the maximum activation
- Protocol: AMPKSAMSF (In Vitro AMPK Activation Assay) The recombinant human AMPK complex 1 (containing α1β1γ1) and complex 7 (containing α2β1γ1) were obtained from baculovirus expression system. […] The in vitro AMPK activation assay is performed in a volume of 30 μl in a 384-well plate. […] Phosphorylated 5-FAM SAMS product is assessed using a Caliper EZ Reader LabChip microfluidics reader. […] The 10-point titration data were expressed as % maximum AMP activation. […]
Mark y for EC50 under 10 nM, n if at or over.

{"record_smiles": "Cc1ccc(Cc2cc3nc(-c4ccc(C5(CO)CC5)cc4)c(Cl)cc3[nH]2)cc1C(=O)O", "experimental_system": "recombinant human AMPK complex 1 (containing α1β1γ1) (Homo sapiens, UniProt Q13131+Q9Y478)", "cat": "y"}
{"record_smiles": "Cc1ccc(Cc2cc3cc(-c4ccc(-c5ccncc5)cc4)c(Cl)cc3[nH]2)cc1C(=O)O", "experimental_system": "recombinant human AMPK complex 1 (containing α1β1γ1) (Homo sapiens, UniProt Q13131+Q9Y478)", "cat": "n"}
{"record_smiles": "CS(=O)(=O)c1ccc(-c2ccc(-c3nc4cc(CCCC(=O)O)[nH]c4cc3Cl)cc2)cc1", "experimental_system": "recombinant human AMPK complex 1 (containing α1β1γ1) (Homo sapiens, UniProt Q13131+Q9Y478)", "cat": "y"}
{"record_smiles": "Cc1ccc(Cc2cc3cc(-c4ccc(-c5ccc(S(C)(=O)=O)cc5)cc4)c(Cl)cc3[nH]2)cc1C(=O)O", "experimental_system": "recombinant human AMPK complex 1 (containing α1β1γ1) (Homo sapiens, UniProt Q13131+Q9Y478)", "cat": "n"}
{"record_smiles": "CS(=O)(=O)c1ccc(-c2ccc(-c3cc4cc(CCCC(=O)O)[nH]c4cc3Cl)cc2)cc1", "experimental_system": "recombinant human AMPK complex 1 (containing α1β1γ1) (Homo sapiens, UniProt Q13131+Q9Y478)", "cat": "n"}
{"record_smiles": "CS(=O)(=O)c1ccc(-c2ccc(-c3nc4cc(CCCCO)[nH]c4cc3Cl)cc2)cc1", "experimental_system": "recombinant human AMPK complex 1 (containing α1β1γ1) (Homo sapiens, UniProt Q13131+Q9Y478)", "cat": "y"}
{"record_smiles": "CS(=O)(=O)c1ccc(-c2ccc(-c3nc4cc(CCCCC(=O)O)[nH]c4cc3Cl)cc2)cc1", "experimental_system": "recombinant human AMPK complex 1 (containing α1β1γ1) (Homo sapiens, UniProt Q13131+Q9Y478)", "cat": "y"}
{"record_smiles": "CS(=O)(=O)c1ccc(-c2ccc(-c3nc4cc(C[C@H]5CC[C@H](CO)CC5)[nH]c4cc3Cl)cc2)cc1", "experimental_system": "recombinant human AMPK complex 1 (containing α1β1γ1) (Homo sapiens, UniProt Q13131+Q9Y478)", "cat": "n"}
{"record_smiles": "Cc1ccc(Cc2cc3cc(-c4ccc(N5CCCC5)cc4)c(Cl)cc3[nH]2)cc1C(=O)O", "experimental_system": "recombinant human AMPK complex 1 (containing α1β1γ1) (Homo sapiens, UniProt Q13131+Q9Y478)", "cat": "n"}
{"record_smiles": "CCOc1ccc(-c2cc3cc(Cc4ccc(C)c(C(=O)O)c4)[nH]c3cc2Cl)c(F)c1", "experimental_system": "recombinant human AMPK complex 1 (containing α1β1γ1) (Homo sapiens, UniProt Q13131+Q9Y478)", "cat": "n"}

----------
- experimental_system: recombinant human AMPK complex 7 (containing α2β1γ1) (Homo sapiens, UniProt P54646+Q9Y478)
- Construct: made in house; host or cells: Spodoptera frugiperda Sf21 cells (baculovirus, triple infection)
- assay_summary: In vitro AMPK activation assay (AMPKSAMSF), AMPK complex 7
- Assay type: biochemical
- experimental_parameters: 10-point titration data expressed as % maximum AMP activation
- Protocol: AMPKSAMSF (In Vitro AMPK Activation Assay) The recombinant human AMPK complex 1 (containing α1β1γ1) and complex 7 (containing α2β1γ1) were obtained from baculovirus expression system. […] The in vitro AMPK activation assay is performed in a volume of 30 μl in a 384-well plate. […] Phosphorylated 5-FAM SAMS product is assessed using a Caliper EZ Reader LabChip microfluidics reader. […] The 10-point titration data were expressed as % maximum AMP activation. […]
Assign True whenever Emax does not fall below 400%; assign False whenever it does.

{"compound": "OC[C@H]1OC[C@H](Oc2cc3nc(-c4ccc(-c5ccccc5)cc4)c(Cl)cc3[nH]2)C[C@@H]1O [Example 121]", "cat": "False"}
{"compound": "Cc1c(O[C@@H]2CC[C@H]3[C@@H]2OC[C@H]3O)[nH]c2cc(Cl)c(-c3ccc(-c4ccccc4)cc3)nc12 [Example 138]", "cat": "True"}
{"compound": "O[C@@H]1CO[C@H]2[C@@H]1OC[C@H]2Oc1cc2nc(-c3ccc(-c4ccccc4)cc3)c(Cl)cc2[nH]1 [Example 69]", "cat": "False"}
{"compound": "OCC1(c2ccc(-c3nc4cc(O[C@@H]5CO[C@H]6[C@@H]5OC[C@H]6O)[nH]c4cc3F)cc2)CC1 [Example 72]", "cat": "True"}
{"compound": "OC[C@H]1OC[C@@H](Oc2cc3nc(-c4ccc(-c5ccccc5)cc4)c(Cl)cc3[nH]2)[C@@H]1O [Example 123]", "cat": "False"}
{"compound": "O[C@@H]1CO[C@H]2[C@@H]1OC[C@H]2Oc1cc2nc(-c3ccc4c(c3)OCO4)c(Cl)cc2[nH]1 [Example 76]", "cat": "True"}
{"compound": "O=S1(=O)CCN(c2ccc(-c3nc4cc(O[C@@H]5CO[C@H]6[C@@H]5OC[C@H]6O)[nH]c4cc3Cl)cc2)CC1 [Example 105]", "cat": "True"}

----------
- experimental_system: recombinant human AMPK complex 7 (containing α2β1γ1) (Homo sapiens, UniProt P54646+Q9Y478)
- assay_summary: In vitro AMPK activation assay (AMPKSAMSF), AMPK complex 7
- experimental_parameters: human AMPK complex 7; inflection point reflecting 50% of the maximum activation
- Protocol: AMPKSAMSF (In Vitro AMPK Activation Assay) The recombinant human AMPK complex 1 (containing α1β1γ1) and complex 7 (containing α2β1γ1) were obtained from baculovirus expression system. […] The in vitro AMPK activation assay is performed in a volume of 30 μl in a 384-well plate. […] Phosphorylated 5-FAM SAMS product is assessed using a Caliper EZ Reader LabChip microfluidics reader. […] The 10-point titration data were expressed as % maximum AMP activation. […]
pEC50: −log10 of the molar value.

{"record_smiles": "Cc1ccc(Oc2cc3nc(-c4ccc(C5(CO)CC5)cc4)c(Cl)cc3[nH]2)cc1P(=O)(O)O", "pEC50": "> 8.52"}
{"record_smiles": "Cn1ccc2cc(-c3nc4cc(O[C@@H]5CO[C@H]6[C@@H]5OC[C@H]6O)[nH]c4cc3Cl)ccc21", "pEC50": "> 8.52"}
{"record_smiles": "OCC1(c2ccc(-c3nc4cc(O[C@@H]5CO[C@H]6[C@@H]5OC[C@H]6O)[nH]c4cc3F)cc2)CC1", "pEC50": "> 8.52"}
{"record_smiles": "O[C@@H]1CO[C@H]2[C@@H]1OC[C@H]2Oc1cc2nc(-c3ccc(-c4ccc(-n5cncn5)cc4)cc3)c(Cl)cc2[nH]1", "pEC50": "> 9.00"}
{"record_smiles": "Cc1ccc(Oc2cc3nc(-c4ccc(-c5ccccc5)cc4)c(Cl)cc3[nH]2)cc1C(=O)O", "pEC50": "> 8.52"}
{"record_smiles": "O[C@@H]1CO[C@H]2[C@@H]1OC[C@H]2Oc1cc2nc(-c3ccc4c(c3)OCO4)c(Cl)cc2[nH]1", "pEC50": "> 8.52"}
{"record_smiles": "Oc1ccccc1-c1ccc(-c2nc3cc(O[C@@H]4CO[C@H]5[C@@H]4OC[C@H]5O)[nH]c3cc2Cl)cc1", "pEC50": "> 9.00"}
